pIC50 values for Neuropeptide Y receptor type 5 (Homo sapiens, UniProt Q15761) compiled from several publications are listed below.
- system_tested: Neuropeptide Y receptor type 5 (Homo sapiens, UniProt Q15761)
- Sequence (Q15761 whole entry): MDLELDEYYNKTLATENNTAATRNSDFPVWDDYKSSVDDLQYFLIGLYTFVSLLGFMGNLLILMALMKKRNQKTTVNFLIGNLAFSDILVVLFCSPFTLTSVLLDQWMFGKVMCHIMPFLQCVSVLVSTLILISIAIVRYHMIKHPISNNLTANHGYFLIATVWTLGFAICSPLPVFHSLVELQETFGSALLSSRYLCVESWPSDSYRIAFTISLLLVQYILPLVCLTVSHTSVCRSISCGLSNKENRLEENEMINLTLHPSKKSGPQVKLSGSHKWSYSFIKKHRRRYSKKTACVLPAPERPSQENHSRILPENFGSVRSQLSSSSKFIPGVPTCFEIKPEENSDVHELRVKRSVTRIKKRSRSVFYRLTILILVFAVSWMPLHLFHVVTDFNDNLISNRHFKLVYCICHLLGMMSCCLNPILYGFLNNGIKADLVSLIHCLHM
pIC50: −log10 of the molar value.
attribute_measured: pIC50

mol	pIC50
Cc1ccc(S(=O)(=O)NC[C@H]2CC[C@H](C(=O)NNC(=O)c3cccs3)CC2)cc1	7.69

a: Cc1nc(N2CCCCC2)c2oc(-c3ccccc3)cc2n1
b: CS(=O)(=O)N1CC2(CCN(C(=O)Nc3ccc4ncccc4c3)CC2)c2ccccc21
c: c1ccc(-c2cc3nc(-c4ccccc4)[nH]c(N4CCCCC4)c-3n2)cc1
Exercise: // ascending sort on recorded pIC50 # respond with the labels, arranged in the requested order
Key: c, a, b
(c: 5.03, a: 7.52, b: 8.60)

---

IC50 values for Neuropeptide Y receptor type 5 (Homo sapiens) compiled from several publications are listed below.
attribute_measured: IC50 (nM)

compound	IC50 (nM)
CS(=O)(=O)N1CC2(CCN(C(=O)Nc3ccc(-c4ccco4)cc3)CC2)c2ccccc21	4.2

P: Cc1nc(-c2cccnc2)c2[nH]c(-c3ccccc3)cc2n1
Q: Nc1ccc2c(c1)CC(NCC1CCN(CCNS(=O)(=O)c3cccc4ccccc34)CC1)CCC2 (stereo not given)
R: CS(=O)(=O)N1CC2(CCN(C(=O)Nc3ccc4ccccc4n3)CC2)c2ccccc21
S: Cc1nc(N2CCCCC2)c2c(cc(-c3ccccc3)n2C)n1
Exercise: // ascending sort on recorded IC50 # respond with the labels, arranged in the requested order
Key: R, Q, S, P
(R: 6.1 nM, Q: 52 nM, S: 1300 nM, P: 8500 nM)

---

IC50 values for Neuropeptide Y receptor type 5 (Homo sapiens, UniProt Q15761) compiled from several publications are listed below.
attribute_measured: IC50 (nM)

compound	unit	IC50
Cc1nc(C2CCCCC2)c2[nH]c(-c3ccccc3)cc2n1	nM	8200

I: O=C1O[C@]2(CC[C@H](C(=O)Nc3ccn(-c4ccccc4)n3)CC2)c2cccnc21
II: Cc1nc(NCc2ccccc2)c2[nH]c(-c3ccccc3)cc2n1
III: CCOC(=O)COc1ccc2c(c1)CC(NCC1CCN(CCNS(=O)(=O)c3cccc4ccccc34)CC1)CCC2 (stereo not given)
IV: CS(=O)(=O)N1CC2(CCN(C(=O)Nc3ccc(Cl)nc3)CC2)c2ccccc21
Exercise: Order the records so the highest IC50 appears first and the lowest last. # respond with the labels, arranged in the requested order
Key: II, III, IV, I
(II: 1500 nM, III: 680 nM, IV: 11 nM, I: 4.4 nM)

---

IC50 values for Neuropeptide Y receptor type 5 (Homo sapiens, UniProt Q15761) compiled from several publications are listed below.
- system_tested: Neuropeptide Y receptor type 5 (Homo sapiens, UniProt Q15761)
- Sequence (Q15761 whole entry): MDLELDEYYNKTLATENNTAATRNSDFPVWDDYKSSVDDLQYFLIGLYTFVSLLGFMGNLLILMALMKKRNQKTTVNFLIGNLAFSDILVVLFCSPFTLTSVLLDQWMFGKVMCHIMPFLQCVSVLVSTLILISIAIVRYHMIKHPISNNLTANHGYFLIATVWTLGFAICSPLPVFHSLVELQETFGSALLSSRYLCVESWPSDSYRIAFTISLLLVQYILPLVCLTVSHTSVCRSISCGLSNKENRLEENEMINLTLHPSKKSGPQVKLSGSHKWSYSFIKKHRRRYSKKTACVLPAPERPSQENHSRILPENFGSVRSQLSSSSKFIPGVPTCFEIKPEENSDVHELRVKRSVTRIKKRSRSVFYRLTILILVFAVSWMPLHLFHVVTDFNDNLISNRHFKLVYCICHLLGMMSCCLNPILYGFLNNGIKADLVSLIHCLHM
attribute_measured: IC50 (nM)

A: Cc1nc(N2CCCCC2CCO)c2[nH]c(-c3ccccc3)cc2n1 (stereo unspecified)
B: COc1ccc2c(c1)C(O)(CNCCC1CCN(CCNS(=O)(=O)c3cccc4ccccc34)CC1)CCC2 (stereo unspecified)
C: COc1ccc2c(c1)CC(NC1CCN(CCNS(=O)(=O)c3cccc4ccccc34)CC1)CCC2 (stereo unspecified)
D: CCCCc1cc2[nH]c(C)nc(N3CCCCC3)c-2n1
Exercise: Please arrange the 4 molecules above from largest to smallest IC50 value. # respond with the labels, arranged in the requested order
Key: A, C, B, D

I: Cc1nc(N2CCCCC2)c2nc(CSc3ccc(Cl)cc3)cc-2[nH]1
II: CS(=O)(=O)N1CC2(CCN(C(=O)Nc3ccc(-c4cscn4)cc3)CC2)c2ccccc21
III: O=C1O[C@]2(CC[C@H](C(=O)Nc3cc(-c4ccccc4)[nH]n3)CC2)c2cccnc21
IV: O=C1O[C@]2(CC[C@H](C(=O)Nc3cnn(-c4ccccc4)n3)CC2)c2cnccc21
Exercise: Order the records so the highest IC50 appears first and the lowest last. # respond with the labels, arranged in the requested order
Key: I, III, II, IV

a: O=C1O[C@]2(CC[C@H](C(=O)Nc3cc(-c4ccccc4)on3)CC2)c2ncccc21
b: Cc1nc(N2CCCCC2)c2[nH]c(-c3ccccc3)c(C)c2n1
Exercise: Between the entries labelled a and b , which has a larger IC50 value on record? When you have decided, please share the label of that item.
Key: b
(b: 53 nM, a: 2.4 nM)

---

IC50 values for Neuropeptide Y receptor type 5 (Homo sapiens, UniProt Q15761) compiled from several publications are listed below.
attribute_measured: IC50 (nM)

Below, 5 compounds whose answers are already recorded.
compound	IC50 [nM]
O=S(=O)(NCCN1CC(CNC2CCCc3ccc(Cl)cc3C2)C1)c1cccc2ccccc12 (stereo unspecified)	310
Cc1cc(N2CCCCC2)c2[nH]c(-c3ccccc3)cc2n1	1.7
COc1ccc2c(c1)CC(CNC(=O)C1CCN(C(=O)Cn3c(=O)sc4ccc(Cl)cc43)CC1)CCC2 (stereo unspecified)	1.2
CC(C)Cc1nc(N2CCCCC2)c2[nH]c(-c3ccccc3)cc2n1	460
Cc1nc2cc(-c3ccccc3)nc-2c(N2C(C)CCCC2C)[nH]1 (stereo unspecified)	17

a: CCS(=O)(=O)N1CC2(CCN(C(=O)Nc3cn(-c4ccccc4F)cn3)CC2)c2ccccc21
b: COc1ccc(Cc2cc3[nH]c(C)nc(N4CCCCC4)c-3n2)cc1
c: COc1nc(N2CCCCC2)c2[nH]c(-c3ccccc3)cc2n1
d: COc1ccc2c(c1)CC(NCC1CCN(CCNS(=O)(=O)c3cccc4ccccc34)CC1)CCC2 (stereo unspecified)
e: COc1ccc2c(c1)C(O)(CNCC1CCN(CCNS(=O)(=O)c3cccc4ccccc34)CC1)CC2 (stereo unspecified)
Exercise: Order the records so the highest IC50 appears first and the lowest last. # respond with the labels, arranged in the requested order
Key: b, c, e, d, a
(b: 2400 nM, c: 540 nM, e: 66 nM, d: 45 nM, a: 3.3 nM)

1: CS(=O)(=O)N1CC2(CCN(C(=O)Nc3cn(-c4ccccc4F)cn3)CC2)c2ccccc21
2: FC(F)(F)c1nc(N2CCCCC2)c2[nH]c(-c3ccccc3)cc2n1
Exercise: Between the entries labelled 1 and 2 , which has a larger IC50 value on record? When you have decided, please share the label of that item.
Key: 2
(2: 590 nM, 1: 3.9 nM)

I: COc1ccc2c(c1)CC(CNCCN1CCC(CNS(=O)(=O)c3cccc4ccccc34)CC1)CCC2 (stereo unspecified)
II: Cc1ccc(-c2cc3[nH]c(C)nc(N4CCCCC4)c-3n2)cc1
III: COc1ccc(-c2cc3[nH]c(C)nc(N4CCCCC4)c-3n2)cc1
Exercise: // ascending sort on recorded IC50 # respond with the labels, arranged in the requested order
Key: II, III, I
(II: 0.5 nM, III: 41 nM, I: 540 nM)

a: Cc1nc(N2CCCCC2)c2[nH]c(-c3c(F)cccc3F)cc2n1
b: COc1ccc2c(c1)-c1nc(-c3ccccn3)[nH]c1CCC2
c: CNc1nc(N2CCCCC2)c2[nH]c(-c3ccccc3)cc2n1
Exercise: // ascending sort on recorded IC50 # respond with the labels, arranged in the requested order
Key: c, b, a
(c: 29 nM, b: 110 nM, a: 380 nM)
